# reported EC50; entries follow
# experimental-system: α-7 nicotinic acetylcholine receptor channel expressed in HEK 293 cells (Rattus norvegicus)
# Construct: expressed in transfected cells
# assay-overview: Ca2+-sensitive fluorescence-based FLIPR assay, α7 nicotinic ACh receptor channel function (agonist)
# Assay type: cell-based
# test-context: FLIPR α7 activity rating (EC50, nM), Table Ib; HEK 293 cells, agonist Ca2+ flux

Before answering, review these 4 worked examples.
>  <structure-smiles-string>
Cc1nc(NC2=NC[C@@]3(CN4CCC3CC4)O2)c(Cl)cc1Cl

>  <EC50>
< 100 nM

$$$$
>  <structure-smiles-string>
COc1ccc2nc(NC3=NC[C@@]4(CN5CCC4CC5)O3)oc2c1

>  <EC50>
100 to 1000 nM

$$$$
>  <structure-smiles-string>
Clc1cncc(-c2ccnc(NC3=NC[C@@]4(CN5CCC4CC5)O3)c2)c1

>  <EC50>
< 100 nM

$$$$
>  <structure-smiles-string>
Fc1cccc2cnc(NC3=NC[C@@]4(CN5CCC4CC5)O3)cc12

>  <EC50>
< 100 nM

$$$$

Consider the additional compound presented here.
I have this compound here, Clc1c(NC2=NC[C@@]3(CN4CCC3CC4)O2)ncc2ccccc12 , and I need its recorded EC50.
< 100 nM

###

# experimental-system: α-7 nicotinic acetylcholine receptor channel expressed in HEK 293 cells (Rattus norvegicus)
# Construct: expressed in transfected cells
# assay-overview: Ca2+-sensitive fluorescence-based FLIPR assay, α7 nicotinic ACh receptor channel function (agonist)
# Format: cell-based
# test-context: FLIPR α7 activity rating (EC50, nM), Table 1; HEK 293 cells, agonist Ca2+ flux
property: EC50

Worked cases, EC50 given:
>  <molecule>
Cc1cnc(NC2=NCC3(CN4CCC3CC4)O2)s1 (stereo not drawn)

>  <EC50>
< 100 nM

$$$$
>  <molecule>
c1cnc2cc(NC3=NCC4(CN5CCC4CC5)O3)ccc2n1 (stereo not drawn)

>  <EC50>
1000 to 100000 nM

$$$$
>  <molecule>
COc1ccc2c(NC3=NC[C@@]4(CN5CCC4CC5)O3)nn(C)c2c1

>  <EC50>
100 to 1000 nM

$$$$

Given the entry FC(F)COc1cc(NC2=NC[C@@]3(CN4CCC3CC4)O2)ncn1 , report its measured EC50.
< 100 nM

Give the measured EC50 of c1ccc(-c2cc(NC3=NC[C@@]4(CN5CCC4CC5)O3)ccn2)cc1 .
100 to 1000 nM

Fill in: EC50 of Cc1noc(C)c1NC1=NCC2(CN3CCC2CC3)O1 (stereo not drawn) is ___
1000 to 100000 nM

Please report the recorded EC50 for Cn1c(NC2=NCC3(CN4CCC3CC4)O2)nc2ccccc21 (single isomer, unassigned) [Example 10a] .
100 to 1000 nM

###

Entries and their measured EC50 follow.
# experimental-system: α-7 nicotinic acetylcholine receptor channel expressed in HEK 293 cells (Rattus norvegicus, UniProt Q05941)
# Construct: expressed in transfected cells
# Sequence (Q05941 23-502): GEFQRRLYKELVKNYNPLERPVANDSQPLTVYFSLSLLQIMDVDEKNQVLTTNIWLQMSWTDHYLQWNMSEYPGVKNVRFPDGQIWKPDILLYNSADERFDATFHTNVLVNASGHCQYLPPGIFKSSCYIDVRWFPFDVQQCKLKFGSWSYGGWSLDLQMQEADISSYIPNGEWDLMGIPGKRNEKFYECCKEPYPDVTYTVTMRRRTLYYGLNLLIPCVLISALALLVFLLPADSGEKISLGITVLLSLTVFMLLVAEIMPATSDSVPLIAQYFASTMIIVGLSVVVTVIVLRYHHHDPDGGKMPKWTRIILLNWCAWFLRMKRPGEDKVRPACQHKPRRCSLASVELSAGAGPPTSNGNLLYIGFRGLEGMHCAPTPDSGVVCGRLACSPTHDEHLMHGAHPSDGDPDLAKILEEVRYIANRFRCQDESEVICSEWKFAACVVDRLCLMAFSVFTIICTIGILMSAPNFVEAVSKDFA
# assay-overview: Ca2+-sensitive fluorescence-based FLIPR assay, α7 nicotinic ACh receptor channel function (agonist)
# Assay type: cell-based
# test-context: FLIPR α7 activity rating (EC50, nM), Table 1; HEK 293 cells, agonist Ca2+ flux

>  <compound>
Cn1c(NC2=NCC3(CN4CCC3CC4)O2)nc2ccccc21 (centres unmarked) [Example 10]

>  <property>
EC50

>  <recorded-result>
100 to 1000 nM

$$$$

Moving on to the next compound.
# query: EC50 of entry Cn1nc(NC2=NC[C@@]3(CN4CCC3CC4)O2)c2ccc(OC(F)F)cc21
100 to 1000 nM

###

# experimental-system: α-7 nicotinic acetylcholine receptor channel expressed in HEK 293 cells (Rattus norvegicus, UniProt Q05941)
# Construct: expressed in transfected cells
# assay-overview: Ca2+-sensitive fluorescence-based FLIPR assay, α7 nicotinic ACh receptor channel function (agonist)
# Assay type: cell-based
# test-context: FLIPR α7 activity rating (EC50, nM), Table 1; HEK 293 cells, agonist Ca2+ flux
property: EC50

In the examples that follow, each entry is paired with its recorded EC50.
>  <compound>
Clc1cccc2sc(NC3=NCC4(CN5CCC4CC5)O3)nc12 (racemic) [Example 7]

>  <EC50>
100 to 1000 nM

$$$$
>  <compound>
c1ccc(-c2csc(NC3=NCC4(CN5CCC4CC5)O3)n2)nc1 (stereo not shown) [Example 88]

>  <EC50>
100 to 1000 nM

$$$$
>  <compound>
Cc1cc(NC2=NC[C@@]3(CN4CCC3CC4)O2)nc(C)c1C#N [Example 248]

>  <EC50>
100 to 1000 nM

$$$$
>  <compound>
c1coc(-c2nnc(NC3=NCC4(CN5CCC4CC5)O3)s2)c1 (stereo not shown) [Example 60]

>  <EC50>
1000 to 100000 nM

$$$$
>  <compound>
c1ccc2[nH]c(NC3=NCC4(CN5CCC4CC5)O3)nc2c1 (stereo not shown) [Example 8]

>  <EC50>
100 to 1000 nM

$$$$
>  <compound>
Fc1ccc2sc(NC3=NCC4(CN5CCC4CC5)O3)nc2c1 (stereo not shown) [Example 47]

>  <EC50>
< 100 nM

$$$$
>  <compound>
Cc1cc(C)c2nc(NC3=NCC4(CN5CCC4CC5)O3)sc2c1 (stereo not shown) [Example 89]

>  <EC50>
< 100 nM

$$$$
>  <compound>
Brc1ccc2c(NC3=NC[C@@]4(CN5CCC4CC5)O3)n[nH]c2c1 [Example 133]

>  <EC50>
< 100 nM

$$$$

Name the reported EC50 value associated with the compound CN(C)C(=O)c1ccc2nc(NC3=NCC4(CN5CCC4CC5)O3)sc2c1 (stereo not shown) [Example 57]
1000 to 100000 nM

EC50 lookup needed for c1cc(C2CC2)nc(NC2=NC[C@@]3(CN4CCC3CC4)O2)n1 [Example 209] , thanks.
< 100 nM

Look at this compound and give its reported EC50. c1ccc2c(c1)CCc1cnc(NC3=NC[C@@]4(CN5CCC4CC5)O3)nc1-2 [Example 177]
< 100 nM

Suppose we examine the compound COc1nc(Br)cnc1NC1=NC[C@@]2(CN3CCC2CC3)O1 [Example 130] ; what EC50 value has been reported?
100 to 1000 nM

Please give the measured EC50 for this compound: Clc1ccc2oc(NC3=NC[C@@]4(CN5CCC4CC5)O3)nc2c1 [Example 289]
< 100 nM

Quick one: EC50 for c1nc(NC2=NC[C@@]3(CN4CCC3CC4)O2)ncc1OC1CCCC1 [Example 219] ?
1000 to 100000 nM

For the compound Cc1ccc(C)c2sc(NC3=NCC4(CN5CCC4CC5)O3)nc12 (stereo not shown) [Example 102] , what EC50 is on record?
< 100 nM

Which value of EC50 has been reported for c1cncc(-c2ncc(NC3=NC[C@@]4(CN5CCC4CC5)O3)cn2)c1 [Example 138] in the records?
1000 to 100000 nM

// query EC50 value for entry Clc1cnc(NC2=NC[C@@]3(CN4CCC3CC4)O2)nc1 [Example 213]
< 100 nM

What value of EC50 has been recorded for this entry: CSc1cnc(NC2=NC[C@@]3(CN4CCC3CC4)O2)cn1 [Example 250]
< 100 nM

Given c1ccc2sc(NC3=NCC4(CN5CCC4CC5)O3)nc2c1 (racemic) [Example 1] , state its recorded EC50.
< 100 nM

###

# experimental-system: α-7 nicotinic acetylcholine receptor channel expressed in HEK 293 cells (Rattus norvegicus)
# Construct: expressed in transfected cells
# assay-overview: Ca2+-sensitive fluorescence-based FLIPR assay, α7 nicotinic ACh receptor channel function (agonist)
# Type: cell-based
# test-context: FLIPR α7 activity rating (EC50, nM), Table 1; HEK 293 cells, agonist Ca2+ flux
# Procedure: I) α7 Nicotinic Acetycholine Receptor Binding. Membranes were prepared for binding using HEK293 cells stably expressing the rat α7 nicotinic acetycholine receptor (rat α7 nAChR). […] II) A Ca^2+-Sensitive, Fluorescence-Based Assay α-7 for Nicotinic Acetylcholine Receptor Channel Function In Mammalian Cells (“FLIPR”). Summary: Lead compounds are evaluated for agonist activity at […], α3β4, […], and α1β1δ1ε sub-types of nicotinic ACh receptor ion channels expressed in mammalian HEK 293 cells. […]
property: EC50

>  <molecule>
FC(F)Oc1ccc2nc(NC3=NC[C@@]4(CN5CCC4CC5)O3)sc2c1 [Example 22]

>  <EC50>
100 to 1000 nM

$$$$

Bench note: what EC50 did C1CCc2sc(NC3=NCC4(CN5CCC4CC5)O3)nc2C1 (single isomer, unassigned) [Example 14b] show?
100 to 1000 nM

Returns the measured EC50 for the input molecule. Input: Cc1cc(Cl)cc2sc(NC3=NC[C@@]4(CN5CCC4CC5)O3)nc12 [Example 174]
100 to 1000 nM

Please report the recorded EC50 for Brc1cnc(NC2=NC[C@@]3(CN4CCC3CC4)O2)nc1-c1ccccc1 [Example 193] .
< 100 nM
